molecular target: IgG1 (human, UniProt P01857-1 P01857-1:1-330); test: SPR; solution A; settings: tags: Calbiochem; chain copies: 2; label: 3' A16 tail for immobilisation
Sequence (P01857 other isoform, or with tags, fused parts or gaps): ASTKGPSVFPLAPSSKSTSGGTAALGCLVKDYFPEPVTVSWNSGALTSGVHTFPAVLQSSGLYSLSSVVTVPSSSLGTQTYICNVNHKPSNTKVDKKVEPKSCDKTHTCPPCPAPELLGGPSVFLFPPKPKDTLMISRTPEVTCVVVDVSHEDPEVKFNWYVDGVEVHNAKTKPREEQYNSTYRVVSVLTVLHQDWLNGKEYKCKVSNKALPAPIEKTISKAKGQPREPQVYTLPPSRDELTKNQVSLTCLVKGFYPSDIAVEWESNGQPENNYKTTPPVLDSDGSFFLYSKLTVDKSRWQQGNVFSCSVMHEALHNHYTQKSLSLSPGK
For each entry below, report its pKd value.
One number for each entry, as −log10 of the molar value.

Known pKd results, listed for orientation:
[[record]]
binder = "GGACAGGUGCUCUGCGGAAACGCGGAACUGUCC (ssRNA, 2'-F at all pyrimidines) [SEQ ID NO:14]"
assay_endpoint = "pKd"
recorded_value = 8.40

[[record]]
binder = "SEQ ID NO:11 (ssRNA, 2'-F at all pyrimidines) RNA: GGACGAGUUACAGGUGCUCCAUCAACAAAAUGUUACAUGGAACUGUAACGGCCG"
assay_endpoint = "pKd"
recorded_value = 9.00

[[record]]
binder = "GGACAGGUGCUCCGAAAGGAACUGUCC (ssRNA, 2'-F at all pyrimidines) [SEQ ID NO:16]"
assay_endpoint = "pKd"
recorded_value = 8.22


Let us move to another entry and its pKd.
Which pKd value belongs to SEQ ID NO:10 (ssRNA, 2'-F at all pyrimidines) RNA: GGAAUGGACGAGUUACAGGUGCUCCAUCAACAAAAUGUUACAUGGAACUGUAACGGCCGACAU ?
8.22

Data credit: patent US20090170219
